System: CEM cells HIV-1 protection, formazan growth assay
assay-details: NCI AIDS Antiviral Assay;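 active means compounds giving half or more protection of infected cells from virus-caused growth loss, again on retest; inactive means the rest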
Please answer using one outcome listed in t = active, f = inactive

Answered cases to consult:
{"compound": "[N-]=[N+]=NC1(c2ccccc2)C(=O)c2cccc3c4ccccc4n(c23)C1=O (stereo not given)", "class-name": "f"}
{"compound": "COC(=O)c1c[nH]c2c1-c1cc(C(=O)OCc3ccccc3)n(S(=O)(=O)c3ccc(C)cc3)c1C(=O)C2=O", "class-name": "f"}
{"compound": "FC(F)(F)c1ccc2c(c1)N(CCCN1CCN(C3CC3)CC1)c1ccccc1S2", "class-name": "f"}
{"compound": "CCOC(=O)C(=C/C=C/N[C@@H](Cc1c[nH]c2ccccc12)C(N)=O)C(=O)OCC", "class-name": "f"}

I would be grateful if you could indicate the recorded call for O=C(CCC(=O)OCC1OC(O)(CC2OC(CO)C(O)C(O)C2O)C(O)C1O)OCc1ccccc1 (stereo not given) .
f

Can you handle `COc1ccc([C@]23CCN(S(=O)(=O)c4ccc(C)cc4)[C@H]2[C@H](CO)C2(CC3)OCC(C)(C)CO2)cc1OC` next?
f

Now consider `CCCCNc1cc(Nc2ccc(Br)cc2)nc(N)n1` and answer again.
f

Request: `CNC(=O)SC1=NS(=O)(=O)c2ccc(Cl)cc2N1`
t

One more compound: `CC(=O)Nc1cc(Cl)cc2[nH]c(C)nc12`
f

How about this compound: `NC(=O)NNc1nc(-c2ccccc2)cs1`
f
